Tested on: HT21 (DNA, G4) GGGTTAGGGTTAGGGTTAGGG
Assay: ITC
Details: NH4+ 30 mM; 20 mM MOPS pH 6.5, 298 K; two-event model, high-affinity site
Test readout: K a1

O=[N+]([O-])[O-].O=[N+]([O-])[O-].[Cu+2].c1ccc(-c2cc(-c3ccc(OCCN4CCOCC4)cc3)cc(-c3ccccn3)n2)nc1 = (1.7 ± 0.3) × 10^7 M^–1
O=[N+]([O-])[O-].O=[N+]([O-])[O-].[Cu+2].c1ccc(-c2cc(-c3ccc(OCCN4CCCCC4)cc3)cc(-c3ccccn3)n2)nc1 = (1.7 ± 0.3) × 10^7 M^–1
CN(C)CCOc1ccc(-c2cc(-c3ccccn3)nc(-c3ccccn3)c2)cc1.O=[N+]([O-])[O-].O=[N+]([O-])[O-].[Cu+2] = (1.7 ± 0.3) × 10^7 M^–1

Values compiled from paper PMC5949855.
